Data origin, for the record: paper PMC7340254

molecular target: histidine-binding protein (HisBP) (Escherichia coli, UniProt P0AEU0); test: biochemical; settings: KD fitted to SAXS χlin. curves, DESY, 4s exposure, HisBP 40 µM
Sequence (P0AEU0 23-260): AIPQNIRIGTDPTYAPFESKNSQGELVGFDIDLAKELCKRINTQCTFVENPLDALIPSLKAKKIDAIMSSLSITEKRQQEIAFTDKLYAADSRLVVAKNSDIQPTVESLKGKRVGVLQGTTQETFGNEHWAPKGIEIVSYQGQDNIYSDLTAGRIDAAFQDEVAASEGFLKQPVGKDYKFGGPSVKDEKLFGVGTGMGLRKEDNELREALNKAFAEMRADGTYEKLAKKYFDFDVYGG
property label: Kd (µM)
Report as a plain number; the unit µM is understood.

Example entries begin here.
compound_string=N=C(N)NCCC[C@H](N)C(=O)O property_label=Kd measured_value=140
compound_string=N[C@@H](Cc1c[nH]cn1)C(=O)O property_label=Kd measured_value=13

Now let's try a different one.
Task: Form field: reported Kd of `NCCCC[C@H](N)C(=O)O`
Output: 160

---

molecular target: histidine-binding protein (HisBP) (Escherichia coli, UniProt P0AEU0); test: biochemical; details: KD fitted to SAXS Vc curves, ESRF, 5s exposure, HisBP 160 µM
Readings of pKd for the listed compounds
Keep in mind that pKd stands for -log10 of concentration in molar terms.

Task: Form field: reported pKd of `N=C(N)NCCC[C@H](N)C(=O)O`
Output: 6.04

Task: Do the same for `N[C@@H](Cc1c[nH]cn1)C(=O)O` please
Output: 6.06

Task: Do the same for `NCCCC[C@H](N)C(=O)O` please
Output: 3.55

---

molecular target: histidine-binding protein (HisBP) (Escherichia coli); assay: biochemical; details: KD fitted to SAXS Vc curves, ESRF, 5s exposure, HisBP 7.6 µM
Readings of Kd for the listed compounds
Report as a plain number; the unit nM is understood.

Task: Form field: reported Kd of `N[C@@H](Cc1c[nH]cn1)C(=O)O`
Output: 2800

Task: Do the same for `N=C(N)NCCC[C@H](N)C(=O)O` please
Output: 280

---

target: histidine-binding protein (HisBP) (Escherichia coli, UniProt P0AEU0); test: biochemical; conditions: KD fitted to SAXS Vc curves, DESY, 4s exposure, HisBP 80 µM
Readings of Kd for the listed molecules
Report as a plain number; the unit µM is understood.

Example entries begin here.
compound_string=N=C(N)NCCC[C@H](N)C(=O)O assay_target="histidine-binding protein (HisBP) (Escherichia coli, UniProt P0AEU0)" readout_units=µM measured_value=0.017
compound_string=NCCCC[C@H](N)C(=O)O assay_target="histidine-binding protein (HisBP) (Escherichia coli, UniProt P0AEU0)" readout_units=µM measured_value=9

Now let's try a different one.
Task: Form field: reported Kd of `N[C@@H](Cc1c[nH]cn1)C(=O)O`
Output: 5.8

---

molecular target: UniProt P0AEU0; test: biochemical; settings: KD fitted to SAXS χlin. curves, Diamond, 40s exposure, HisBP 80 µM
property label: pKd
Keep in mind that pKd stands for -log10 of concentration in molar terms.

Example entries begin here.
compound_string=N[C@@H](Cc1c[nH]cn1)C(=O)O property_label=pKd measured_value=4.70
compound_string=NCCCC[C@H](N)C(=O)O property_label=pKd measured_value=3.59

Now let's try a different one.
Task: Form field: reported pKd of `N=C(N)NCCC[C@H](N)C(=O)O`
Output: 7.92

---

Readings of pKd for the listed compounds
molecular target: histidine-binding protein (HisBP) (Escherichia coli); assay: biochemical; settings: KD fitted to SAXS χlin. curves, AustSynch, 20s exposure, HisBP 19 µM
Keep in mind that pKd stands for -log10 of concentration in molar terms.

compound="N[C@@H](Cc1c[nH]cn1)C(=O)O [His, histidine]" measured_value=5.92

Task: Form field: reported pKd of N=C(N)NCCC[C@H](N)C(=O)O [Arg, arginine]
Output: 4.96
